# System: Klebsiella pneumoniae KPN+19-15
# Format: cell-based
# measurement-context: KPN+19-15
# Method: The minimal inhibitory concentration (MIC) was determined by the broth microdilution method according to the recommended procedures of the Clinical and Laboratory Standards Institute (CLSI). An appropriate amount of the cyclic lipopeptide compounds prepared in Examples 1-120 and the reference standards were weighed and dissolved in sterile pure water. […]
Bridge positions count the residues as written; N and C are the ends. Square brackets hold non-standard residues; d marks the D form. Peptide text beside a SMILES is read from it. * marks the point of attachment. Heptanoyl(6-Me) = CC(C)CCCCC(=O)*; Sulfomethyl = O=S(=O)(O)C*; dDab = NCC[C@@H](N)C(=O)O; Heptanoyl = CCCCCCC(=O)*; Dab = NCC[C@H](N)C(=O)O; Dap = NC[C@H](N)C(=O)O
Entries and their measured MIC follow.
Could you give the number and then its unit, please?

Solved entries (count: 2):
1. CC(C)CCCCC(=O)N[C@@H](CCN)C(=O)N[C@H](C(=O)N[C@H](CO)C(=O)N[C@H]1CCNC(=O)[C@H]([C@@H](C)O)NC(=O)[C@H](CCN)NC(=O)[C@H](CCN)NC(=O)[C@H]([C@@H](C)OCS(=O)(=O)O)NC(=O)[C@@H](Cc2ccccc2)NC(=O)[C@H](CCN)NC1=O)[C@@H](C)O [Compound 105] ({Heptanoyl(6-Me)}-[Dab]T[dS][Dab][Dab][dF]T(Sulfomethyl)[Dab][Dab]T; lactam 4-C): 0.125 µg/mL
2. CC(C)CCCCC(=O)N[C@@H](CCN)C(=O)N[C@H](C(=O)N[C@@H](CN)C(=O)N[C@H]1CCNC(=O)[C@H]([C@@H](C)O)NC(=O)[C@H](CCN)NC(=O)[C@H](CCN)NC(=O)[C@H]([C@@H](C)OCS(=O)(=O)O)NC(=O)[C@@H](Cc2ccccc2)NC(=O)[C@H](CCN)NC1=O)[C@@H](C)O [Compound 114] ({Heptanoyl(6-Me)}-[Dab]T[Dap][Dab][Dab][dF]T(Sulfomethyl)[Dab][Dab]T; lactam 4-C): 0.125 µg/mL

Shift focus to the following entry.
Ask: Consider the compound CCCCCCC(=O)N[C@@H](CCN)C(=O)N[C@H](C(=O)N[C@H](CCN)C(=O)N[C@H]1CCNC(=O)[C@H]([C@@H](C)O)NC(=O)[C@H](CCN)NC(=O)[C@H](CCN)NC(=O)[C@H]([C@@H](C)O)NC(=O)[C@@H](Cc2ccccc2)NC(=O)[C@H](CCN)NC1=O)[C@@H](C)O [Compound 14] (Heptanoyl-[Dab]T[dDab][Dab][Dab][dF]T[Dab][Dab]T; lactam 4-C) and give its measured MIC.
Reply: 0.03 µg/mL

====

Entries and their measured MIC follow.
# System: Klebsiella pneumoniae KPN+19-15
# Assay type: cell-based
# measurement-context: KPN+19-15
Bridge positions count the residues as written; N and C are the ends. Square brackets hold non-standard residues; d marks the D form. Peptide text beside a SMILES is read from it. * marks the point of attachment. Dab(CH2SO3H) = N[C@@H](CCNCS(=O)(=O)O)C(=O)O; Heptanoyl(6-Me) = CC(C)CCCCC(=O)*; Nonanoyl = CCCCCCCCC(=O)*; X1 = CC[C@H](C)CCCCC(=O)*; dDab = NCC[C@@H](N)C(=O)O; Octanoyl = CCCCCCCC(=O)*; Orn = NCCC[C@H](N)C(=O)O; dDap = NC[C@@H](N)C(=O)O; Dab = NCC[C@H](N)C(=O)O; Dap = NC[C@H](N)C(=O)O
# unit: µg/mL | format: bare number

1. CCCCCCCCC(=O)N[C@@H](CCN)C(=O)N[C@H](C(=O)N[C@H](CN)C(=O)N[C@H]1CCNC(=O)[C@H]([C@@H](C)O)NC(=O)[C@H](CCN)NC(=O)[C@H](CCN)NC(=O)[C@H]([C@@H](C)O)NC(=O)[C@@H](Cc2ccccc2)NC(=O)[C@H](CCN)NC1=O)[C@@H](C)O [Compound 5] (Nonanoyl-[Dab]T[dDap][Dab][Dab][dF]T[Dab][Dab]T; lactam 4-C): 0.06

Ask: Consider the compound CCCCCCCC(=O)N[C@@H](CN)C(=O)N[C@H](C(=O)N[C@H](CCN)C(=O)N[C@H]1CCNC(=O)[C@H]([C@@H](C)O)NC(=O)[C@H](CCN)NC(=O)[C@H](CCN)NC(=O)[C@H](CC(C)C)NC(=O)[C@@H](Cc2ccccc2)NC(=O)[C@H](CCN)NC1=O)[C@@H](C)O [Compound 93] (Octanoyl-[Dap]T[dDab][Dab][Dab][dF]L[Dab][Dab]T; lactam 4-C) and give its measured MIC.
Reply: 0.03

Ask: Consider the compound CC(C)CCCCC(=O)N[C@@H](CCN)C(=O)N[C@H](C(=O)N[C@H](CO)C(=O)N[C@H]1CCNC(=O)[C@H]([C@@H](C)O)NC(=O)[C@H](CCN)NC(=O)[C@H](CCN)NC(=O)[C@H]([C@@H](C)O)NC(=O)[C@@H](Cc2ccccc2)NC(=O)[C@H](CCNCS(=O)(=O)O)NC1=O)[C@@H](C)O [Compound 109] ({Heptanoyl(6-Me)}-[Dab]T[dS][Dab][Dab(CH2SO3H)][dF]T[Dab][Dab]T; lactam 4-C) and give its measured MIC.
Reply: 0.125

Ask: Consider the compound CCCCCCCCC(=O)N[C@@H](CCN)C(=O)N[C@H](C(=O)N[C@H](CO)C(=O)N[C@H]1CCNC(=O)[C@H]([C@@H](C)O)NC(=O)[C@H](CCN)NC(=O)[C@H](CN)NC(=O)[C@H]([C@@H](C)O)NC(=O)[C@@H](Cc2ccccc2)NC(=O)[C@H](CCN)NC1=O)[C@@H](C)O [Compound 75] (Nonanoyl-[Dab]T[dS][Dab][Dab][dF]T[Dap][Dab]T; lactam 4-C) and give its measured MIC.
Reply: 0.5

Ask: Consider the compound CC[C@H](C)CCCCC(=O)N[C@@H](CCN)C(=O)N[C@H](C(=O)N[C@H](CO)C(=O)N[C@H]1CCNC(=O)[C@H]([C@@H](C)O)NC(=O)[C@H](CCCN)NC(=O)[C@H](CCN)NC(=O)[C@H]([C@@H](C)O)NC(=O)[C@@H](Cc2ccccc2)NC(=O)[C@H](CCN)NC1=O)[C@@H](C)O [Compound 86] (X1-[Dab]T[dS][Dab][Dab][dF]T[Dab][Orn]T; lactam 4-C) and give its measured MIC.
Reply: 0.5

Ask: Consider the compound CC[C@H](C)CCCCC(=O)N[C@@H](CN)C(=O)N[C@H](C(=O)N[C@H](CCN)C(=O)N[C@H]1CCNC(=O)[C@H]([C@@H](C)O)NC(=O)[C@H](CCN)NC(=O)[C@H](CCN)NC(=O)[C@H](CC(C)C)NC(=O)[C@@H](Cc2ccccc2)NC(=O)[C@H](CCN)NC1=O)[C@@H](C)O [Compound 91] (X1-[Dap]T[dDab][Dab][Dab][dF]L[Dab][Dab]T; lactam 4-C) and give its measured MIC.
Reply: 0.03

Ask: Consider the compound CCCCCCCCC(=O)N[C@@H](CCCN)C(=O)N[C@H](C(=O)N[C@H](CO)C(=O)N[C@H]1CCNC(=O)[C@H]([C@@H](C)O)NC(=O)[C@H](CCN)NC(=O)[C@H](CCN)NC(=O)[C@H]([C@@H](C)O)NC(=O)[C@@H](Cc2ccccc2)NC(=O)[C@H](CCN)NC1=O)[C@@H](C)O [Compound 60] (Nonanoyl-[Orn]T[dS][Dab][Dab][dF]T[Dab][Dab]T; lactam 4-C) and give its measured MIC.
Reply: 0.5

Ask: Consider the compound CC(C)CCCCC(=O)N[C@@H](CCN)C(=O)N[C@H](C(=O)N[C@@H](CN)C(=O)N[C@H]1CCNC(=O)[C@H]([C@@H](C)O)NC(=O)[C@H](CCN)NC(=O)[C@H](CCNCS(=O)(=O)O)NC(=O)[C@H]([C@@H](C)O)NC(=O)[C@@H](Cc2ccccc2)NC(=O)[C@H](CCN)NC1=O)[C@@H](C)O [Compound 119] ({Heptanoyl(6-Me)}-[Dab]T[Dap][Dab][Dab][dF]T[Dab(CH2SO3H)][Dab]T; lactam 4-C) and give its measured MIC.
Reply: 0.125

====

Entries and their measured MIC follow.
# Tested on: Pseudomonas aeruginosa ATCC 27853
# Assay type: cell-based
# measurement-context: ATCC 27853
Bridge positions count the residues as written; N and C are the ends. Square brackets hold non-standard residues; d marks the D form. Peptide text beside a SMILES is read from it. * marks the point of attachment. Heptanoyl(6-Me) = CC(C)CCCCC(=O)*; Sulfomethyl = O=S(=O)(O)C*; dOrn = NCCC[C@@H](N)C(=O)O; Nonanoyl = CCCCCCCCC(=O)*; X1 = CC[C@H](C)CCCCC(=O)*; dDab = NCC[C@@H](N)C(=O)O; Octanoyl = CCCCCCCC(=O)*; Orn = NCCC[C@H](N)C(=O)O; Dab = NCC[C@H](N)C(=O)O; Dap = NC[C@H](N)C(=O)O
# unit: µg/mL | format: bare number

Solved entries (count: 4):
1. CCCCCCCC(=O)N[C@@H](CN)C(=O)N[C@H](C(=O)N[C@H](CO)C(=O)N[C@H]1CCNC(=O)[C@H]([C@@H](C)O)NC(=O)[C@H](CCN)NC(=O)[C@H](CCN)NC(=O)[C@H]([C@@H](C)O)NC(=O)[C@@H](Cc2ccccc2)NC(=O)[C@H](CCN)NC1=O)[C@@H](C)O [Compound 53] (Octanoyl-[Dap]T[dS][Dab][Dab][dF]T[Dab][Dab]T; lactam 4-C): 64
2. CCCCCCCC(=O)N[C@@H](CCN)C(=O)N[C@H](C(=O)N[C@H](CCN)C(=O)N[C@H]1CCNC(=O)[C@H]([C@@H](C)O)NC(=O)[C@H](CCN)NC(=O)[C@H](CCN)NC(=O)[C@H]([C@@H](C)O)NC(=O)[C@@H](Cc2ccccc2)NC(=O)[C@H](CCN)NC1=O)[C@@H](C)O [Compound 13] (Octanoyl-[Dab]T[dDab][Dab][Dab][dF]T[Dab][Dab]T; lactam 4-C): 1
3. CC(C)CCCCC(=O)N[C@@H](CCN)C(=O)N[C@H](C(=O)N[C@@H](CN)C(=O)N[C@H]1CCNC(=O)[C@H]([C@@H](C)O)NC(=O)[C@H](CCN)NC(=O)[C@H](CCN)NC(=O)[C@H]([C@@H](C)O)NC(=O)[C@@H](Cc2ccccc2)NC(=O)[C@H](CCN)NC1=O)[C@@H](C)OCS(=O)(=O)O [Compound 113] ({Heptanoyl(6-Me)}-[Dab]T(Sulfomethyl)[Dap][Dab][Dab][dF]T[Dab][Dab]T; lactam 4-C): 0.25
4. CC[C@H](C)CCCCC(=O)N[C@@H](CCN)C(=O)N[C@H](C(=O)N[C@H](CCCN)C(=O)N[C@H]1CCNC(=O)[C@H]([C@@H](C)O)NC(=O)[C@H](CCN)NC(=O)[C@H](CCN)NC(=O)[C@H](CC(C)C)NC(=O)[C@@H](Cc2ccccc2)NC(=O)[C@H](CCN)NC1=O)[C@@H](C)O [Compound 41] (X1-[Dab]T[dOrn][Dab][Dab][dF]L[Dab][Dab]T; lactam 4-C): 0.25

Ask: Consider the compound CCCCCCCCC(=O)N[C@@H](CCN)C(=O)N[C@H](C(=O)N[C@@H](CCCN)C(=O)N[C@H]1CCNC(=O)[C@H]([C@@H](C)O)NC(=O)[C@H](CCN)NC(=O)[C@H](CCN)NC(=O)[C@H](CC(C)C)NC(=O)[C@@H](Cc2ccccc2)NC(=O)[C@H](CCN)NC1=O)[C@@H](C)O [Compound 50] (Nonanoyl-[Dab]T[Orn][Dab][Dab][dF]L[Dab][Dab]T; lactam 4-C) and give its measured MIC.
Reply: 0.03

Provenance of the data: patent EP4725957A1
